Parameter 'readout' = pKd; parameter 'system' = Met (Homo sapiens, UniProt P08581).
Sequence (P08581 25-1390): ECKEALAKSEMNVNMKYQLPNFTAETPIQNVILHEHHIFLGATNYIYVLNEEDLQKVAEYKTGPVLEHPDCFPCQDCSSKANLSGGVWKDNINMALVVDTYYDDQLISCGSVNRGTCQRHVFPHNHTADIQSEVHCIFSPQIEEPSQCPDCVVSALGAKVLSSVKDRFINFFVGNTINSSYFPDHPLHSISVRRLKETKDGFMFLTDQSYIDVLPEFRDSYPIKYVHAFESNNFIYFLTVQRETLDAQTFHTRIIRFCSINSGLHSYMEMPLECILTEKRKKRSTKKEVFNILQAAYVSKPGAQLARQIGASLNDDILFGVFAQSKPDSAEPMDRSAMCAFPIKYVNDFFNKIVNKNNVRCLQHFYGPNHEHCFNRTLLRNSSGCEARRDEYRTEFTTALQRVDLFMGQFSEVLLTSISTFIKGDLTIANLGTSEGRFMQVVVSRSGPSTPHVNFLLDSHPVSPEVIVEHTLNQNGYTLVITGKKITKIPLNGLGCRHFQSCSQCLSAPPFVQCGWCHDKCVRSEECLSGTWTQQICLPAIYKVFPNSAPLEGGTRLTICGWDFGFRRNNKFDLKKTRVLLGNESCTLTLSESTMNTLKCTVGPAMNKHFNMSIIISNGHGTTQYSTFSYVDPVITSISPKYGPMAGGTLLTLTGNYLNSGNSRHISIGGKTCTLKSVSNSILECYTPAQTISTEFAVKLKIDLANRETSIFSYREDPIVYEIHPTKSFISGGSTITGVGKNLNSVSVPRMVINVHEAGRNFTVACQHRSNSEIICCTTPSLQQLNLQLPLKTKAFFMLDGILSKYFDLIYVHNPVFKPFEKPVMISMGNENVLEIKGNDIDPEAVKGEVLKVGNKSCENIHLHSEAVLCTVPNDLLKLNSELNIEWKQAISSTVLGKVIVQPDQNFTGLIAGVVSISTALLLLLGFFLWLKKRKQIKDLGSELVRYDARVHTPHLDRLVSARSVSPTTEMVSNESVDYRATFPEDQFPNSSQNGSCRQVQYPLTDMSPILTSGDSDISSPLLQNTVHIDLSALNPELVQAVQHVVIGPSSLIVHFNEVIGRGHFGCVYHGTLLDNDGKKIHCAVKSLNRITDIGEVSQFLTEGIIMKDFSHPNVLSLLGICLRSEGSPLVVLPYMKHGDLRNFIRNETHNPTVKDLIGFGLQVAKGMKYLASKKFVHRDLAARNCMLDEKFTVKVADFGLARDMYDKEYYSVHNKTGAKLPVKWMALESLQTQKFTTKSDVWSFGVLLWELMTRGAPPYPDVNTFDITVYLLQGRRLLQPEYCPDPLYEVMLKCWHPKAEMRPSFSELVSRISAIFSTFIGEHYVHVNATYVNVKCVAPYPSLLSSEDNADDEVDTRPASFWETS
pKd: −log10 of the molar value.

Consider the following illustrative entries.
> print(dat)
                           structure.string                 experimental.system  metric.name      observed
1  CCOc1cn(-c2ccc(NC(C)C)cc2Cl)nc1C(=O)Nc1ccc(Oc2ccnc3cc(OC)c(OC)cc23)cn1  Met (Homo sapiens, UniProt P08581)          pKd  6.00 to 7.00
2  CCOc1cn(-c2ccc(F)cc2C)nc1C(=O)Nc1ccc(Oc2ccnc3cc(OC)c(OC)cc23)c(NC(C)C)c1  Met (Homo sapiens, UniProt P08581)          pKd        ≤ 6.00
3  CCOc1cn(-c2cnccc2CN(C)C)nc1C(=O)Nc1ccc(Oc2ccnc3cc(OC)c(OC)cc23)cn1  Met (Homo sapiens, UniProt P08581)          pKd  6.00 to 7.00
4  CCOc1cn(-c2ccoc2)nc1C(=O)Nc1ccc(Oc2ccnc3cc(OC)c(OC)cc23)cn1  Met (Homo sapiens, UniProt P08581)          pKd        > 7.00

-- ask // returns reported pKd for input CCOc1cn(CCC#N)nc1C(=O)Nc1ccc(Oc2ccnc3cc(OC)c(OC)cc23)cn1
-- reply 6.00 to 7.00

-- ask // returns reported pKd for input CCOc1cn(CC2CCN(C)CC2)nc1C(=O)Nc1ccc(Oc2ccnc3cc(OC)c(OC)cc23)cc1F
-- reply 6.00 to 7.00

-- ask // returns reported pKd for input CCOc1cn(-c2cnc(N)nc2)nc1C(=O)Nc1ccc(Oc2ccnc3cc(OC)c(OC)cc23)c(Cl)c1
-- reply > 7.00
